Tested on: ERBB4;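 also: KINOMEscan kinase panel screen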
settings: concentration: 1 μM,replicates: in singlicate; n = 1
result_type: %Inh (%)
Give bare numbers, in %.

// worked examples, %Inh included
Entry under test: `CCN(CC)CCOc1ccc(Nc2ncc3cc(-c4c(Cl)cccc4Cl)c(=O)n(C)c3n2)cc1` . Its %Inh was 82

Entry under test: `Cl.Cl.NC[C@H](CC1CCCCC1)NC(=O)c1cc(Br)c(-c2ccnc3[nH]ccc23)s1` . Its %Inh was 22

Entry under test: `C[C@@H]1CCN(C(=O)CC#N)C[C@@H]1N(C)c1ncnc2[nH]ccc12` . Its %Inh was 15

Consider now this further compound.
Entry under test: `O=C(NCCNc1ccnc(NCc2ccc(F)cc2)n1)c1cc2ccccc2s1` . Its %Inh was 0
